Assay: qHTS assay to identify small molecule agonists of the estrogen receptor beta (ER-beta) signaling pathway - cell viability counter screen (AID 1259380); note: nearly all actives have a fitted effect of over 30% in size
Settings: ER-beta-bla HEK293T viability, CellTiter-Glo luminescence, 16 h; series mostly up to 92.4 µM
Results filed as inconclusive are left out. Activity calls are given as the source filed them. Calls come from the whole dose curve; as a rule, active = well fitted cell-killing curve with a large enough effect in the repeat runs; inconclusive = weak or mixed curves, or effect the other way; inactive = flat fitted curve, though single readings scatter.
Outcome codes: yes (1) = active, no (0) = inactive

[
  {
    "Input smiles": "Cc1ccc(OP(=O)(Oc2ccccc2)Oc2ccccc2)cc1",
    "Label class": "yes (1)"
  },
  {
    "Input smiles": "CC(C)N1C(=O)N(c2ccccc2)CSC1=NC(C)(C)C",
    "Label class": "yes (1)"
  },
  {
    "Input smiles": "Cc1ccc(CCl)cc1",
    "Label class": "no (0)"
  },
  {
    "Input smiles": "O=C(Cl)c1ccc(Cl)cc1",
    "Label class": "no (0)"
  },
  {
    "Input smiles": "ClC1=C(Cl)[C@]2(Cl)[C@H]3[C@H]([C@H]4C=C[C@H]3C4)[C@@]1(Cl)C2(Cl)Cl",
    "Label class": "no (0)"
  }
]
